Entry source: patent US11505528B2

- target: E. coli CsgA (Escherichia coli)
- Construct: 6xHis (C); made in house; host or cells: E. coli NEB 3016 slyD::kan
- Sequence (P28307 23-151): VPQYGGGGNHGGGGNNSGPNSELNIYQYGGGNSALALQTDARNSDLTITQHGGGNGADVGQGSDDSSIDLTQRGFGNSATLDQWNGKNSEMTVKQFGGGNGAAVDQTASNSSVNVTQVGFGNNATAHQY
- assay.procedure: Thioflavin T cell-free assay of CsgA aggregation
- Assay type: biochemical
- condition.description: read-out: Inhibition of Aggregation, CsgA (compound activity range)
Below, each entry is listed with its recorded inhibition at 20 µM.

Answered cases to consult:
[
  {
    "molecule": "O=C(Nc1cc(O)c(O)c(O)c1)c1c[nH]c2cc(O)c(O)c(O)c2c1=O [Compound 20]",
    "target": "E. coli CsgA (Escherichia coli)",
    "inhibition at 20 µM": "> 60%"
  },
  {
    "molecule": "O=C(Nc1cccc(O)c1)c1c[nH]c2ccccc2c1=O [Compound 46]",
    "target": "E. coli CsgA (Escherichia coli)",
    "inhibition at 20 µM": "-10 to 10%"
  },
  {
    "molecule": "COc1cc(NC(=O)c2c(NC(=O)c3cc(OC)c(OC)c(OC)c3)sc3c2CCCC3)cc(OC)c1 [Compound 5]",
    "target": "E. coli CsgA (Escherichia coli)",
    "inhibition at 20 µM": "-10 to 10%"
  },
  {
    "molecule": "COc1cc(NC(=O)c2c(NC(=O)c3ccccc3)sc3c2CCCC3)cc(OC)c1OC [Compound 11]",
    "target": "E. coli CsgA (Escherichia coli)",
    "inhibition at 20 µM": "< -10%"
  },
  {
    "molecule": "COc1cc(C(=O)Nc2sc3c(c2C(N)=O)CCCC3)cc(OC)c1OC [Compound 12]",
    "target": "E. coli CsgA (Escherichia coli)",
    "inhibition at 20 µM": "< -10%"
  },
  {
    "molecule": "COc1cc(NC(=O)c2c(NC(=O)c3cc(OC)c(OC)c(OC)c3)sc3c2CCCC3)cc(OC)c1OC [Compound 1]",
    "target": "E. coli CsgA (Escherichia coli)",
    "inhibition at 20 µM": "-10 to 10%"
  },
  {
    "molecule": "COc1cc2[nH]cc(C(=O)Nc3ccc(O)c(F)c3)c(=O)c2c(OC)c1OC [Compound 34]",
    "target": "E. coli CsgA (Escherichia coli)",
    "inhibition at 20 µM": "< -10%"
  },
  {
    "molecule": "O=C(Nc1sc2c(c1C(=O)Nc1cc(O)c(O)c(O)c1)CCCC2)c1ccccc1 [Compound 18]",
    "target": "E. coli CsgA (Escherichia coli)",
    "inhibition at 20 µM": "10 to 30%"
  }
]

**Q:** Tell us which inhibition at 20 µM value is on record for O=C(Nc1cc(O)c(O)c(O)c1)c1c(-c2cc(O)c(O)c(O)c2)[nH]c2cc(O)c(O)c(O)c2c1=O [Compound 44]
**A:** > 60%

**Q:** Write down inhibition at 20 µM measured for item O=C(Nc1ccccc1)c1c[nH]c2cc(O)cc(O)c2c1=O [Compound 27]
**A:** 30 to 60%

**Q:** Return reported inhibition at 20 µM. Input molecule: O=C(Nc1cccc(O)c1)c1c[nH]c2cc(O)cc(O)c2c1=O [Compound 48]
**A:** -10 to 10%

**Q:** For the molecule COc1cc2[nH]cc(C(=O)Nc3cccc(O)c3)c(=O)c2c(OC)c1OC [Compound 28] , report inhibition at 20 µM.
**A:** -10 to 10%
